- experiment: Plasma pharmacokinetics after a single oral RK dose, normal-weight
- Type: in vivo, C57BL/6J mice
- measurementParameters: male, C57BL/6J, mouse, plasma, po, 200 mg/kg, T1/2 (elimination half-life), Pl-N: plasma, normal-weight male mice; single oral RK 200 mg kg^−1
Everything with half-life lower than 40 min is false (0); everything else, including exactly 40 min, is true (1).

compound | assignedClass
CC(=O)C=Cc1ccc(O)c(O)c1 [DHPhLiAce, 3,4-dihydroxybenzylideneacetone] | true (1)
CC(=O)CCc1ccc(O)cc1 [RK, 4-(4-hydroxyphenyl)-2-butanone] | true (1)
COc1ccc(CCC(C)=O)cc1 [RK-Me, 4-(4-methoxy-phenyl)-2-butanone] | false (0)
OCCc1ccc(O)cc1 [4-HPE, 2-(4-hydroxyphenyl)ethanol] | true (1)
OCCc1ccc(O)c(O)c1 [3,4-DHPE, 2-(3,4-dihydroxyphenyl)ethanol] | true (1)
